Reported background-corrected fluorescence values for the following sequences.
protocol: background-corrected fluorescence of 3'-dye-labeled ssDNA relative to brightest sequence (3'-GCGCG) (fraction); higher = brighter dye fluorescence (less quenching)
measurement-parameters: dye: Cy5 (3' terminal)
readout-label: background-corrected fluorescence

1. TTTTTTGCTCAGCATCAGCATTTTTTTTTTTTTTTAGTGT [TGTGA]: 0.474
2. TTTTTTCATGAGCATGATGCTTTTTTTTTTTTTTTGCTCA [ACTCG]: 0.386
3. TTTTTTCATGAGCATCATGCTTTTTTTTTTTTTTTGCTGA [AGTCG]: 0.525
4. TTTTTGCATGATGCTGCGCATTTTTTTTTTTTTTTTCAAT [TAACT]: 0.386
5. TTTTTTCATGATCATGAGCATTTTTTTTTTTTTTTGCGCT [TCGCG]: 0.485
